- system name: Itk (Homo sapiens, UniProt Q08881)
- Construct: Kinases are expressed as either kinase domains or full length constructs; made in house
- Sequence (Q08881 whole entry, species assumed, the tested form may be a part): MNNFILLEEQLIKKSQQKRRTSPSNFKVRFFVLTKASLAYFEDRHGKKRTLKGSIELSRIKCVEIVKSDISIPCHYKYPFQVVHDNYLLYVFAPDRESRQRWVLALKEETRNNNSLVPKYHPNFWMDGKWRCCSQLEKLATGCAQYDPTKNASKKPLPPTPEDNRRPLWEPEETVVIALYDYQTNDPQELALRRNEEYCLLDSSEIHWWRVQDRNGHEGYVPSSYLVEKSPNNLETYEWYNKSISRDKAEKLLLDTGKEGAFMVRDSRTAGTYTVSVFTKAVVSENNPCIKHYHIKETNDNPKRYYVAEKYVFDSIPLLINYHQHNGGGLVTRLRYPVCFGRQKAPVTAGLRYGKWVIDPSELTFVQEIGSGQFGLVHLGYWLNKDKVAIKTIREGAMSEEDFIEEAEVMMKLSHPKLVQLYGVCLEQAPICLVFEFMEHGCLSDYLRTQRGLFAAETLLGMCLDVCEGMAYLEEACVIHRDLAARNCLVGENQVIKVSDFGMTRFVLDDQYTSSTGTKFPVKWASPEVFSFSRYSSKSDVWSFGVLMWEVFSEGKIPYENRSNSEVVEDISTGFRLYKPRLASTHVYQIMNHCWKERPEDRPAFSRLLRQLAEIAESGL
- assay info: Kinase inhibition assay (33P transfer), Itk
- Format: biochemical
- conditions used: Table 3; read-out: Itk-1
A collection of compounds and their measured IC50

compound	IC50
NC(=O)c1ccc(Nc2ncnc(-n3c(=O)[nH]c4ccccc43)n2)cc1 [Compound 419]	> 13 µM
c1csc(-c2ncnc(Nc3ccncc3)n2)c1 [Compound 363]	> 17.6 µM
COc1cc(Nc2ncnc(-c3ccncc3)n2)cc(OC)c1OC [Compound 42]	> 13.3 µM
c1coc(-c2cc(Nc3ncnc(Nc4ccc(N5CCOCC5)cc4)n3)[nH]n2)c1 [Compound 340]	> 11.1 µM
Nc1nc2ccccc2n1-c1ncnc(Nc2ccc(-c3cnco3)cc2)n1 [Compound 438]	1.08 to 6.48 µM
COc1cc(Nc2ncnc(-n3c(=O)[nH]c4ccccc43)n2)cc(OC)c1OC [Compound 325]	> 11.4 µM
COc1cc(Nc2ncnc(-n3cc(CC(N)=O)c4ccccc43)n2)cc(OC)c1OC [Compound 353]	0.921 to 5.52 µM
CCOC(=O)Cc1ccc(Nc2ncnc(Nc3cc(OC)c(OC)c(OC)c3)n2)cc1 [Compound 62]	> 10.2 µM
COc1cc(Nc2ncnc(-n3c(NCc4cccnc4)nc4ccccc43)n2)cc(OC)c1OC [Compound 416]	> 9.29 µM
COc1cc(Nc2ncnc(-n3ccc4cc(F)ccc43)n2)cc(OC)c1OC [Compound 441]	> 11.4 µM
COc1cc(Nc2ncnc(N(CC(=O)OC(C)(C)C)c3ccc(Cl)cc3)n2)cc(OC)c1OC [Compound 291]	> 8.96 µM
COc1cc(Nc2ncnc(Nc3nc4ccccc4n3C)n2)cc(OC)c1OC [Compound 938]	> 11 µM
COc1cc(Nc2ncnc(Nc3ccccc3C)n2)cc(OC)c1OC [Compound 67]	> 12.2 µM
COc1cc(Nc2ncnc(-n3c(NCCO)nc4ccccc43)n2)cc(OC)c1OC [Compound 391]	> 10.3 µM
COc1cc(Nc2ncnc(-c3ccnc(Cl)c3)n2)cc(OC)c1OC [Compound 331]	> 12 µM
COc1ccc(Nc2ncnc(-n3cccc3)n2)c(OC)c1 [Compound 273]	> 15.1 µM
COc1cc(Nc2ncnc(-c3ccccc3)n2)cc(OC)c1OC [Compound 970]	> 13.3 µM
COc1cccc(-c2ncnc(Nc3cc(OC)c(OC)c(OC)c3)n2)c1 [Compound 232]	> 12.2 µM
COc1ncnc(Nc2cc(OC)c(OC)c(OC)c2)n1 [Compound 421]	> 15.4 µM
COc1cc(Nc2ncnc(N3CCN(C)CC3)n2)cc(OC)c1OC [Compound 212]	> 12.5 µM
COc1cc(Nc2ncnc(N(CC(=O)OC(C)(C)C)c3ccc4c(c3)OCO4)n2)cc(OC)c1OC [Compound 309]	> 8.8 µM
COc1cc(Nc2ncnc(NN3CCOCC3)n2)cc(OC)c1OC [Compound 103]	> 12.4 µM
COc1cc(Nc2ncnc(Nc3c(C)n(C)n(-c4ccccc4)c3=O)n2)cc(OC)c1OC [Compound 256]	> 9.71 µM
COc1cc(Nc2ncnc(Nc3ccncc3)n2)cc(OC)c1OC [Compound 39]	> 12.7 µM
COc1cc(Nc2ncnc(-c3ccc(N(C)C)nc3)n2)cc(OC)c1OC [Compound 449]	> 11.8 µM
COc1cc(Nc2ncnc(-c3c(O)n(C)c4ccccc34)n2)cc(OC)c1OC [Compound 465]	> 11 µM
Oc1ccc(Nc2ncnc(Nc3ccc(OCc4ccccc4)cc3)n2)cc1 [Compound 158]	> 11.7 µM
COc1cc(OC)cc(-c2nnc(Nc3ncnc(Nc4cc(OC)c(OC)c(OC)c4)n3)[nH]2)c1 [Compound 312]	> 9.37 µM
O=c1[nH]c2ccccc2n1-c1ncnc(Nc2cccc(OC(F)(F)F)c2)n1 [Compound 461]	> 11.6 µM
COc1cc(Nc2ncnc(-n3cc(CCO)c4ccccc43)n2)cc(OC)c1OC [Compound 463]	> 10.7 µM
COc1cc(Nc2ncnc(Nc3ccc(C(C)C)cc3)n2)cc(OC)c1OC [Compound 66]	> 11.4 µM
COc1cc(Nc2ncnc(Nc3cccc(C(=O)O)c3)n2)cc(OC)c1OC [Compound 933]	> 11.3 µM
CC(=O)NS(=O)(=O)c1ccc(Nc2ncnc(-n3c(N)nc4ccccc43)n2)cc1 [Compound 440]	8.25 to 10.6 µM
COc1cc(Nc2ncnc(N3CCCCC3)n2)cc(OC)c1OC [Compound 207]	> 13 µM
COCCOc1ccc(Nc2ncnc(Nc3ccc(C)c(F)c3)n2)cc1OCCOC [Compound 322]	> 10.1 µM
